# test-protocol: Half life in overnight fasted Sprague-Dawley rat at 20 mg/kg, iv by HPLC analysis
# Assay type: ADME, organism-based
# measurement-context: in vivo
quantity-measured: half-life (h)
Answers are plain numbers, in h.

The value of half-life measured for the molecule CN1CCN(c2ccc(Nc3ncc4cc(CNc5ccccc5)n(C5CCCC5)c4n3)cc2)CC1 turned out to be 8.92

---

# System: Epidermal growth factor receptor (Homo sapiens), P00533 [L858R,T790M,C797S]
# Sequence (P00533 whole entry T790M/C797S/L858R): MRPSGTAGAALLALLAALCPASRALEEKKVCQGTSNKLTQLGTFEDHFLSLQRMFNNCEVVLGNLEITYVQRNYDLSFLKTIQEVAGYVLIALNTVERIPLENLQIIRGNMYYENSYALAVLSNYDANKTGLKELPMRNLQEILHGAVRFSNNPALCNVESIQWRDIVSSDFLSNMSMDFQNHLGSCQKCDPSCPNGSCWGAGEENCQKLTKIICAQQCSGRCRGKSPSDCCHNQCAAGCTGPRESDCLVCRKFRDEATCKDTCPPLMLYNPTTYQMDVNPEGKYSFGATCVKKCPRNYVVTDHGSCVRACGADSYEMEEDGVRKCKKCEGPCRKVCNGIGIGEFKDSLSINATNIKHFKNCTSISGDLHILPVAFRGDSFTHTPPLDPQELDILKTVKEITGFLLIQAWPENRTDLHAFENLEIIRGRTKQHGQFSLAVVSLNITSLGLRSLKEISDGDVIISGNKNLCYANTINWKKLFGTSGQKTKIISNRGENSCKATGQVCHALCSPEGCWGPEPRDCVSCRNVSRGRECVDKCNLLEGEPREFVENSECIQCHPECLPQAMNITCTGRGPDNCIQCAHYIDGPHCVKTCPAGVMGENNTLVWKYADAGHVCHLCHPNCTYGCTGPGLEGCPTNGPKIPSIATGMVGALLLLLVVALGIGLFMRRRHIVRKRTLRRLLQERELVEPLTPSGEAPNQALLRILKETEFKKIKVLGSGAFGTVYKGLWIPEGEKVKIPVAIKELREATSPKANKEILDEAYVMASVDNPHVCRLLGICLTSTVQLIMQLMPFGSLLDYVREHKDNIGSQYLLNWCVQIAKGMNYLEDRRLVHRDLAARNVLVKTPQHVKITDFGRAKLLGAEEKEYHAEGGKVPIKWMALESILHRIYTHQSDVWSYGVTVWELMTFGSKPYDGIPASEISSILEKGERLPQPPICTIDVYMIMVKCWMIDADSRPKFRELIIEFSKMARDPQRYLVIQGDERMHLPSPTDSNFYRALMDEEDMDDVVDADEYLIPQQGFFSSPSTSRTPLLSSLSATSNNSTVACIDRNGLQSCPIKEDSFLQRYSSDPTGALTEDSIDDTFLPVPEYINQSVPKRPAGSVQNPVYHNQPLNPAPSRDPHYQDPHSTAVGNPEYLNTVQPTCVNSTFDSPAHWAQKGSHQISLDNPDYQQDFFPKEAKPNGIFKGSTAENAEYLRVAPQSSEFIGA
# test-protocol: Inhibition of EGFR L858R/T790M/C797S mutant (unknown origin) at 0.5 uM relative to control
quantity-measured: inhibition (%)
Numbers only, in %.

The cases that follow already have their inhibition on record.
| mol-smiles | quantity-measured | measurement |
| --- | --- | --- |
| C=CC(=O)Nc1cc(Nc2ncc3cc(C(=O)Nc4ccnc(OC)c4)n(C4CCCC4)c3n2)c(OC)cc1N(C)CCN(C)C | inhibition | -2.6 |
| C=CC(=O)Nc1cc(Nc2ncc3cc(C(=O)Nc4cccc(C#N)c4)n(C4CCCC4)c3n2)c(OC)cc1N(C)CCN(C)C | inhibition | 3.7 |
| C=CC(=O)Nc1cc(Nc2ncc3cc(C(=O)Nc4cccc(C)c4)n(C4CCCC4)c3n2)c(OC)cc1N(C)CCN(C)C | inhibition | 6.7 |

// below: inhibition requested for another compound
The value of inhibition measured for the compound C=CC(=O)Nc1cc(Nc2ncc3cc(C(=O)Nc4cccc(OC)c4)n(C4CCCC4)c3n2)c(OC)cc1N1CCOCC1 turned out to be 1.4

---

Can you tell me inhibition for the items I'm about to list?
# Test system: Epidermal growth factor receptor (Homo sapiens), P00533 [L858R,T790M,C797S]
# test-protocol: Inhibition of EGFR L858R/T790M/C797S mutant (unknown origin) at 0.5 uM relative to control
Note to self: number, then unit, no commentary.

The cases that follow already have their inhibition on record.
| mol-smiles | inhibition |
| --- | --- |
| C=CC(=O)Nc1cc(Nc2ncc3cc(C(=O)Nc4cccc(OC)c4)n(C4CCCC4)c3n2)c(OC)cc1N1CCC(N(C)C)CC1 | 15% |
| CN1CCN(c2ccc(Nc3ncc4cc(CNc5ccccc5)n(C5CCCC5)c4n3)cc2)CC1 | 83% |
| CN(C)CCN(C)c1ccc(Nc2ncc3cc(CNc4ccccc4)n(C4CCCC4)c3n2)cc1 | 88% |

Below is a list of compounds. For each, state its recorded inhibition.
1. C=CC(=O)Nc1cc(Nc2ncc3cc(CNc4cc(C)cc(C)c4)n(C4CCCC4)c3n2)c(OC)cc1N(C)CCN(C)C
2. C=CC(=O)Nc1cc(Nc2ncc3cc(C(=O)Nc4cccc(OC(F)(F)F)c4)n(C4CCCC4)c3n2)c(OC)cc1N(C)CCN(C)C
3. C=CC(=O)Nc1cc(Nc2ncc3cc(C(=O)Nc4ccc(OC)cc4)[nH]c3n2)c(OC)cc1N(C)CCN(C)C
4. C=CC(=O)Nc1cc(Nc2ncc3cc(C(=O)Nc4ccccc4)n(C4CCCC4)c3n2)c(OC)cc1N1CCN(C)CC1

1. -1.4%
2. -1.9%
3. 2.8%
4. 23%

The value of inhibition measured for the compound C=CC(=O)Nc1cc(Nc2ncc3cc(C(=O)Nc4cccc(OC)c4)n(C4CCCC4)c3n2)c(OC)cc1N(C)CCN(C)C turned out to be 11%

---

# test-protocol: Clearance in overnight fasted Sprague-Dawley rat at 20 mg/kg, iv by HPLC analysis
# Assay type: ADME, organism-based
# measurement-context: in vivo
quantity-measured: clearance (mL/min/kg)
One number for each entry, in mL/min/kg.

The value of clearance measured for the compound CN1CCN(c2ccc(Nc3ncc4cc(CNc5ccccc5)n(C5CCCC5)c4n3)cc2)CC1 turned out to be 21.2

---

# assayed-system: Epidermal growth factor receptor (Homo sapiens, UniProt P00533, C797S/L858R/T790M)
# Sequence (P00533 25-1210 T790M/C797S/L858R limits assumed): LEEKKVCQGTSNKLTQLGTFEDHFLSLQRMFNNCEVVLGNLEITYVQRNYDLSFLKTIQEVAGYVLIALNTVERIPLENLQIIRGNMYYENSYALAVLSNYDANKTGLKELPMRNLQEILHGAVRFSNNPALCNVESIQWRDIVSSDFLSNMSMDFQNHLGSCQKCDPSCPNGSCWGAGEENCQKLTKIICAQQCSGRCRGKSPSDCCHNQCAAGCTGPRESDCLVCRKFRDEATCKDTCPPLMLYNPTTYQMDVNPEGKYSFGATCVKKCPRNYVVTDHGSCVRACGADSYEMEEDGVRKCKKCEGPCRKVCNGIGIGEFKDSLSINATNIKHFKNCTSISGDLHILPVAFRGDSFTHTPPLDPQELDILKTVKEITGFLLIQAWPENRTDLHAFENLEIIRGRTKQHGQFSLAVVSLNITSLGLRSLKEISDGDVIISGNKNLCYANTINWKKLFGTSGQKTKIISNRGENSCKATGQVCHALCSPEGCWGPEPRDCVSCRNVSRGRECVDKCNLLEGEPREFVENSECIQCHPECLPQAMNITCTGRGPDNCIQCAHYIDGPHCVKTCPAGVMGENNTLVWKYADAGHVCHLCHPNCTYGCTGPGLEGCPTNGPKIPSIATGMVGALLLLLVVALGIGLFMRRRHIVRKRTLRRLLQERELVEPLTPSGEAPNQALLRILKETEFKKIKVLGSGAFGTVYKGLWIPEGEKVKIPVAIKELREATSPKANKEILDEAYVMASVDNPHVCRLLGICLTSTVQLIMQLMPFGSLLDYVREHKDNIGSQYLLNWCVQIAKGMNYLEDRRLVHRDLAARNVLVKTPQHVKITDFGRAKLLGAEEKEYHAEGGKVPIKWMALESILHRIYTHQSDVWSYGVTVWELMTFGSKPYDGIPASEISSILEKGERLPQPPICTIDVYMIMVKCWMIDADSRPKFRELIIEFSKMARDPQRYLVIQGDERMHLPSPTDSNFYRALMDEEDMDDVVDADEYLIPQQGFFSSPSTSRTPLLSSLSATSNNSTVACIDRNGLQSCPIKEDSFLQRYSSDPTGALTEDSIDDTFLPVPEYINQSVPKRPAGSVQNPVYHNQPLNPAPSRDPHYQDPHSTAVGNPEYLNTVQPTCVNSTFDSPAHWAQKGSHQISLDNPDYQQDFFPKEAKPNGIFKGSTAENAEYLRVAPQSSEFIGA
# test-protocol: Inhibition of EGFR L858R/T790M/C797S mutant (unknown origin)
quantity-measured: pIC50
Give bare numbers, as −log10 of the molar value.

| mol-smiles | pIC50 |
| --- | --- |
| CN1CCN(c2ccc(Nc3ncc4cc(CNc5ccccc5)n(C5CCCC5)c4n3)cc2)CC1 | 7.77 |
| COc1cc(N2CCC(N(C)C)CC2)ccc1Nc1ncc2cc(CNc3ccccc3)n(C3CCCC3)c2n1 | 8.00 |
| CN(C)CCN(C)c1ccc(Nc2ncc3cc(CNc4ccccc4)n(C4CCCC4)c3n2)cc1 | 6.52 |

// below: pIC50 requested for another molecule
The value of pIC50 measured for the molecule COc1cc(N2CCC(N3CCN(C)CC3)CC2)ccc1Nc1ncc2cc(CNc3ccccc3)n(C3CCCC3)c2n1 turned out to be 7.26

---

# test-protocol: Clearance in overnight fasted Sprague-Dawley rat at 20 mg/kg, po by HPLC analysis
# Format: ADME, organism-based
# measurement-context: in vivo
quantity-measured: CL/F (mL/min/kg)
Give bare numbers, in mL/min/kg.

The value of CL/F measured for the compound CN1CCN(c2ccc(Nc3ncc4cc(CNc5ccccc5)n(C5CCCC5)c4n3)cc2)CC1 turned out to be 35.9

---

# test-protocol: Cmax in overnight fasted Sprague-Dawley rat at 20 mg/kg, iv by HPLC analysis
# Format: ADME, organism-based
# Set-up: dose 20 mg/kg, route iv
# measurement-context: in vivo
quantity-measured: Cmax (ng/mL)
Give bare numbers, in ng/mL.

The value of Cmax measured for the compound CN1CCN(c2ccc(Nc3ncc4cc(CNc5ccccc5)n(C5CCCC5)c4n3)cc2)CC1 turned out to be 6840

---

# test-protocol: Oral bioavailability in overnight fasted Sprague-Dawley rat at 20 mg/kg by HPLC analysis
# Assay type: ADME, organism-based
# measurement-context: in vivo
quantity-measured: bioavailability (%)
Answers are plain numbers, in %.

The value of bioavailability measured for the compound CN1CCN(c2ccc(Nc3ncc4cc(CNc5ccccc5)n(C5CCCC5)c4n3)cc2)CC1 turned out to be 66

---

# Tested on: Epidermal growth factor receptor (Homo sapiens), P00533 [L858R,T790M,C797S]
# test-protocol: Inhibition of EGFR L858R/T790M/C797S mutant (unknown origin) at 0.5 uM relative to control
quantity-measured: inhibition (%)
Give bare numbers, in %.

| compound | quantity-measured | unit-abbrev | measurement |
| --- | --- | --- | --- |
| COc1cc(N2CCC(N(C)C)CC2)ccc1Nc1ncc2cc(CNc3ccccc3)n(C3CCCC3)c2n1 | inhibition | % | 80 |

Below is a list of compounds. For each, state its recorded inhibition.
1. C=CC(=O)Nc1cc(Nc2ncc3cc(CNc4cccc(C)c4)n(C4CCCC4)c3n2)c(OC)cc1N(C)CCN(C)C
2. COc1cc(N2CCC(N3CCN(C)CC3)CC2)ccc1Nc1ncc2cc(CNc3ccccc3)n(C3CCCC3)c2n1
3. C=CC(=O)Nc1cc(Nc2ncc3cc(C(=O)NC4CCCc5ccccc54)n(C4CCCC4)c3n2)c(OC)cc1N(C)CCN(C)C (stereo not drawn)
4. C=CC(=O)Nc1cc(Nc2ncc3cc(C(=O)Nc4ccccc4OC)n(C4CCCC4)c3n2)c(OC)cc1N(C)CCN(C)C
5. C=CC(=O)Nc1cc(Nc2ncc3cc(C(=O)Nc4ccc(OC)c(OC)c4)n(C4CCCC4)c3n2)c(OC)cc1N(C)CCN(C)C
6. C=CC(=O)Nc1cc(Nc2ncc3cc(CNc4cccc(OC)c4)n(C4CCCC4)c3n2)c(OC)cc1N(C)CCN(C)C
7. C=CC(=O)Nc1cc(Nc2ncc3cc(C(=O)Nc4ccccc4)n(C4CCCC4)c3n2)ccc1N1CCN(C)CC1

1: 48; 2: 78; 3: 13; 4: 7.5; 5: 7.3; 6: 41; 7: 21

---

# test-protocol: MRT (0 to infinity) in overnight fasted Sprague-Dawley rat at 20 mg/kg, po by HPLC analysis
# Assay type: ADME, organism-based
# measurement-context: in vivo
quantity-measured: MRT inf (h)
Give bare numbers, in h.

The value of MRT inf measured for the compound CN1CCN(c2ccc(Nc3ncc4cc(CNc5ccccc5)n(C5CCCC5)c4n3)cc2)CC1 turned out to be 16.8

---

# Tested on: Epidermal growth factor receptor (Homo sapiens), P00533 [L858R,T790M,C797S]
# test-protocol: Inhibition of EGFR L858R/T790M/C797S mutant (unknown origin) at 0.5 uM relative to control
Can you tell me inhibition for the items I'm about to list?
Give bare numbers, in %.

The cases that follow already have their inhibition on record.
| mol-smiles | inhibition, % |
| --- | --- |
| C=CC(=O)Nc1cc(Nc2ncc3cc(C(=O)Nc4ccnc(C)c4)n(C4CCCC4)c3n2)c(OC)cc1N(C)CCN(C)C | -10 |
| C=CC(=O)Nc1cc(Nc2ncc3cc(C(=O)Nc4ccccc4)n(C4CCCC4)c3n2)c(OC)cc1N(C)CCN(C)C | 18 |

// below: inhibition requested for another compound
The value of inhibition measured for the compound C=CC(=O)Nc1cc(Nc2ncc3cc(C(=O)Nc4cccc(OC)c4)n(-c4ccccc4)c3n2)c(OC)cc1N(C)CCN(C)C turned out to be 4.1
